Entries annotated with measured % Activity, relative to cycloartenol methylation
Test system: (S)-adenosyl-L-methionine: Δ^24-sterol methyl transferase (SMT)
test method notes: Sterol specificity (substrate methylation) of SMT enzyme from 4-day corn seedlings
Format: biochemical, Zea mays (corn)
test context: soluble SMT; (C1), first methyl transfer

Some compounds with recorded % Activity, relative to cycloartenol methylation:
- smiles input: "CC(C)=CCC[C@@H](C)[C@H]1CC[C@@]2(C)[C@@H]3CC[C@H]4C(C)(C)[C@@H](O)CC[C@]4(C)C3=CC[C@]12C"
  reported: "16 (C1) %"
- smiles input: "CC(C)=CCC[C@@H](C)[C@H]1CC[C@H]2C3=C(CC[C@]12C)[C@@]1(C)CC[C@H](O)C[C@@H]1CC3"
  reported: "14 (C1) %"

Alright, here's another compound for you.
Noted for CC(C)=CCC[C@@H](C)[C@H]1CC[C@@]2(C)C3=C(CC[C@]12C)[C@@]1(C)CC[C@H](O)C(C)(C)[C@@H]1CC3 : its % Activity, relative to cycloartenol methylation reads 65 (C1) %

Values were extracted from patent US20020148006A1.
